Molecular target: human GLP-1 receptor (hGLP1R) (human, UniProt P43220 24-463)
Test: cell-based or functional assay
Numbered stars: 1 amine (or outer) side, 2 acyl side, 3 side chain; on linkers, the order of the positions; unused ones are H or OH. Square brackets hold non-standard residues; d marks the D form. Side chains are listed from the residue outwards. Ends that are not written are not given here. * marks the point of attachment. C20 diacid = O=C(O)CCCCCCCCCCCCCCCCCCC(=O)*; γGlu = O=C(O)[C@H](CCC(=O)[*:2])N[*:1]; AEEA = NCCOCCOCC(=O)O; Aib = CC(C)(N)C(=O)O

# binder, pEC50 hGLPR1
data = [
    ("H[Aib]EGTFTSDVSPLKEEA[Aib]LQRFLEHLV-NH2 (not fully specified (residue 14); also: K14 lipidated with C20DA[γE][OEG][OEG]- or C18DA[γE][OEG][OEG]-) [SEQ ID NO: 140]", "8.9 -log M"),
    ("H[Aib]EGTFTSDPSYLKEEA[Aib]LQRFLEHLV-NH2 (not fully specified (residue 14)) [SEQ ID NO: 121]", "8.6 -log M"),
    ("H[Aib]EGTFTSDVSYLYEEA[Aib]LQRFLEKLV-NH2 (not fully specified (residue 25)) [SEQ ID NO: 143]", "11 -log M"),
    ("H[Aib]EGTFTSDVSYLK([AEEA-AEEA-γGlu-C20 diacid])E[Aib]AATQRFLEHLV-NH2 [SEQ ID NO: 48]", "10.6 -log M"),
    ("H[Aib]EGTFTSDVSYLK([AEEA-AEEA-γGlu-C20 diacid])EEAAQQRFLEHLV-NH2 [SEQ ID NO: 47]", "10.8 -log M"),
    ("H[Aib]EGTFTSDVSELK([AEEA-AEEA-γGlu-C20 diacid])EFAASQRFLEHLV-NH2 [SEQ ID NO: 8]", "10.3 -log M"),
    ("H[Aib]EGTFTSDVSELK([AEEA-AEEA-γGlu-C20 diacid])EEA[Aib]LQRFLEHLV-NH2 [SEQ ID NO: 168]", "11.2 -log M"),
    ("H[Aib]EGTFTSDVSVLK([AEEA-AEEA-γGlu-C20 diacid])EFAASQRFLEHLV-NH2 [SEQ ID NO: 92]", "10.1 -log M"),
    ("H[Aib]EGTFTSDVSRLK([AEEA-AEEA-γGlu-C20 diacid])EFAA[Aib]QRFLEHLV-NH2 [SEQ ID NO: 68]", "10 -log M"),
    ("H[Aib]EGTFTSDVSRLK([AEEA-AEEA-γGlu-C20 diacid])ETAA[Aib]QRFLEHLV-NH2 [SEQ ID NO: 85]", "9.9 -log M"),
    ("H[Aib]EGTFTSDVSVLK([AEEA-AEEA-γGlu-C20 diacid])ETAAAQRFLEHLV-NH2 [SEQ ID NO: 62]", "10 -log M"),
    ("H[Aib]EGTFTSDVS[Aib]LKEEA[Aib]LQRFLEHLV-NH2 (not fully specified (residue 14)) [SEQ ID NO: 163]", "10.9 -log M"),
    ("H[Aib]EGTFTSDVSELK([AEEA-AEEA-γGlu-C20 diacid])EEAAEQRFLEHLV-NH2 [SEQ ID NO: 51]", "10.5 -log M"),
    ("H[Aib]EGTFTSDVSTLK([AEEA-AEEA-γGlu-C20 diacid])ELAAAQRFLEHLV-NH2 (also: K14 lipidated with C20DA[γE][OEG][OEG]- or C18DA[γE][OEG][OEG]-) [SEQ ID NO: 11]", "10.3 -log M"),
    ("H[Aib]EGTFTSDVSYLK([AEEA-AEEA-γGlu-C20 diacid])EFAA[Aib]QRFLEHLV-NH2 [SEQ ID NO: 46]", "10.3 -log M"),
    ("H[Aib]EGTFTSDVSYLWEEA[Aib]LQRFLEKLV-NH2 (not fully specified (residue 25)) [SEQ ID NO: 130]", "10.5 -log M"),
    ("H[Aib]EGTFTSDVSRLK([AEEA-AEEA-γGlu-C20 diacid])EEAAQQRFLEHLV-NH2 [SEQ ID NO: 73]", "11.2 -log M"),
    ("H[Aib]EGTFTSDVSFLK([AEEA-AEEA-γGlu-C20 diacid])EEAA[Aib]QRFLEHLV-NH2 [SEQ ID NO: 37]", "10.9 -log M"),
    ("H[Aib]EGTFTSDVSELKEEAA[Aib]QRFLEHLV-NH2 (not fully specified (residue 14)) [SEQ ID NO: 97]", "11 -log M"),
]
